TESTED_SYSTEM: Carbonic anhydrase (Baker's yeast)
Sequence (A0A6A5Q7R6 whole entry): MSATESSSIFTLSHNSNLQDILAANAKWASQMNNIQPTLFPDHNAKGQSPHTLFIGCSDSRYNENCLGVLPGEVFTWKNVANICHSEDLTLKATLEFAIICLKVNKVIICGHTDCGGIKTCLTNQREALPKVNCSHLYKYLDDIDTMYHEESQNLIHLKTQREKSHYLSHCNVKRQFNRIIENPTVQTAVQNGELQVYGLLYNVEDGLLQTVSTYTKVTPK
Task for the reader: assign each of the following compounds its reported Ki.
Answer in nM, number only, no unit symbol.

Let me check: CCN(CC)Cc1cc(C(=O)/C=C/c2ccccn2)ccc1O [CA standard inhibitor, 9] , system Carbonic anhydrase (Baker's yeast), measured Ki is 81.9

Let me check: CNCCNCc1cc(C(=O)/C=C/c2cccnc2)ccc1O [CA standard inhibitor, 7] , system Carbonic anhydrase (Baker's yeast), measured Ki is 76.5

Let me check: O=C(/C=C/c1cccnc1)c1ccc(O)c(CN2CCCC2)c1 [CA standard inhibitor, 5] , system Carbonic anhydrase (Baker's yeast), measured Ki is 4.9

Let me check: `O=C(/C=C/c1cccnc1)c1ccc(O)cc1` , system Carbonic anhydrase (Baker's yeast), measured Ki is 76.5
